Tested on: HCT-116
Assay: Cytotoxicity against human HCT116 cells at 10 ug/mL by MTT assay
Type: functional, cell-based
reported property: Activity

CCOC(=O)c1c(O)c(O)cc(Br)c1OC [CERATINOPHENOL A]; Not toxic
NCCCOc1c(Br)cc(C(O)CN)cc1Br (stereo not drawn); Not toxic
COC1=C(Br)C[C@]2(OC=C1Br)ON=C(C(=O)NCCCOc1c(Br)cc(CCN)cc1Br)[C@@H]2O [PSAMMAPLYSIN A]; Not toxic
N#CC(=O)NCCCOc1c(Br)cc(CCN)cc1Br; Not toxic
C[N+]1=C2C=C(N)C(=O)c3[nH]cc(c32)CC1; Not toxic

What value of Activity has been reported for the following molecule? NCCc1cc(Br)c(OCCCNC(=O)C(N)=O)c(Br)c1 [MOLOKA'IAKITAMIDE] Not toxic

What value of Activity has been reported for the following molecule? `NCCCOc1c(Br)cc(CCN)cc1Br` Not toxic

What value of Activity has been reported for the following molecule? `COc1c(Br)cc(O)c(O)c1C=O` Not toxic

Recorded values, source ChEMBL document CHEMBL1155811.
